# Tested on: Aorta
# Method Description: Vasodilatory activity in rat thoracic aorta assessed as relaxation of phenylephrine-induced precontraction at 10 ug/mL
# Assay type: functional
# Parameters: scale not given: the % may be the effect or the level left
Observable: Activity (%)
Give bare numbers, in %.

Below, each entry is followed by its recorded Activity result.
[[record]]
compound = "CC1(C)C(=O)CC[C@]2(C)[C@H]3CC[C@@]4(C)[C@H](C5=CC(=O)NC5=O)CC[C@]4(C)C3=CC[C@@H]12 [LAXIRACEMOSIN H]"
observable = "Activity"
meas_value = 18.3

[[record]]
compound = "CC1(C)[C@H](O)CC[C@]2(C)[C@H]3CC[C@@]4(C)[C@H](C5=CC(=O)NC5=O)CC[C@]4(C)C3=CC[C@@H]12"
observable = "Activity"
meas_value = 87.4

[[record]]
compound = "CC1(C)C(=O)CC[C@]2(C)[C@H]3CC[C@@]4(C)[C@H](C5COC(=O)C5)CC[C@]4(C)C3=CC[C@@H]12 (some centres undefined)"
observable = "Activity"
meas_value = 43.5


Inquiry: # lookup: Activity of CC1(C)[C@H](O)CC[C@]2(C)[C@H]3CC[C@@]4(C)[C@H](C5COC(=O)C5)CC[C@]4(C)C3=CC[C@@H]12 (some centres undefined)
Reply text: 37.5
